# Test system: LOU-NH91
# Experimental protocol: relative viability (nuclei count vs DMSO), 5 days (fraction); higher = more cells survive
# Conditions used: first compound 0.002 µM
Let's look at some compounds and their measured relative viability.
Quick one: just the number, no unit, thanks!

Compound: CC(=O)O[C@@]12CO[C@@H]1C[C@H](O)[C@@]1(C)C(=O)[C@H](O)C3=C(C)[C@@H](OC(=O)[C@H](O)[C@@H](NC(=O)OC(C)(C)C)c4ccccc4)C[C@@](O)([C@@H](OC(=O)c4ccccc4)[C@H]21)C3(C)C [Docetaxel] + C[C@]1(O)C[C@@H](c2nc(-c3ccc4ccc(-c5ccccc5)nc4c3)c3c(N)nccn32)C1 [Linsitinib] (partner 1 µM)
Target system: LOU-NH91
relative viability: 0.586

Compound: CC(=O)O[C@@]12CO[C@@H]1C[C@H](O)[C@@]1(C)C(=O)[C@H](O)C3=C(C)[C@@H](OC(=O)[C@H](O)[C@@H](NC(=O)OC(C)(C)C)c4ccccc4)C[C@@](O)([C@@H](OC(=O)c4ccccc4)[C@H]21)C3(C)C [Docetaxel] + O=C(CCCCCCC(=O)Nc1ccccc1)NO [Vorinostat] (partner 1 µM)
Target system: LOU-NH91
relative viability: 0.436

Compound: CC(=O)O[C@@]12CO[C@@H]1C[C@H](O)[C@@]1(C)C(=O)[C@H](O)C3=C(C)[C@@H](OC(=O)[C@H](O)[C@@H](NC(=O)OC(C)(C)C)c4ccccc4)C[C@@](O)([C@@H](OC(=O)c4ccccc4)[C@H]21)C3(C)C [Docetaxel] + CC(=O)c1c(C)c2cnc(Nc3ccc(N4CCNCC4)cn3)nc2n(C2CCCC2)c1=O [Palbociclib] (partner 0.5 µM)
Target system: LOU-NH91
relative viability: 0.491

**Query** Tell me the measured relative viability of CC(=O)O[C@@]12CO[C@@H]1C[C@H](O)[C@@]1(C)C(=O)[C@H](O)C3=C(C)[C@@H](OC(=O)[C@H](O)[C@@H](NC(=O)OC(C)(C)C)c4ccccc4)C[C@@](O)([C@@H](OC(=O)c4ccccc4)[C@H]21)C3(C)C [Docetaxel] + CS(=O)(=O)N1CCN(Cc2cc3nc(-c4cccc5[nH]ncc45)nc(N4CCOCC4)c3s2)CC1 [Pictilisib] (partner 1 µM) , please.
**Result** 0.38

**Query** Tell me the measured relative viability of CC(=O)O[C@@]12CO[C@@H]1C[C@H](O)[C@@]1(C)C(=O)[C@H](O)C3=C(C)[C@@H](OC(=O)[C@H](O)[C@@H](NC(=O)OC(C)(C)C)c4ccccc4)C[C@@](O)([C@@H](OC(=O)c4ccccc4)[C@H]21)C3(C)C [Docetaxel] + CC1(C)CCC(c2ccc(Cl)cc2)=C(CN2CCN(c3ccc(C(=O)NS(=O)(=O)c4ccc(N[C@H](CCN5CCOCC5)CSc5ccccc5)c(S(=O)(=O)C(F)(F)F)c4)cc3)CC2)C1 [Navitoclax] (partner 0.5 µM) , please.
**Result** 0.332

**Query** Tell me the measured relative viability of CC(=O)O[C@@]12CO[C@@H]1C[C@H](O)[C@@]1(C)C(=O)[C@H](O)C3=C(C)[C@@H](OC(=O)[C@H](O)[C@@H](NC(=O)OC(C)(C)C)c4ccccc4)C[C@@](O)([C@@H](OC(=O)c4ccccc4)[C@H]21)C3(C)C [Docetaxel] + COc1cccc2cc(-c3nc([C@H]4CC[C@H](C(=O)O)CC4)n4ncnc(N)c34)[nH]c12 [OSI-027] (partner 0.5 µM) , please.
**Result** 0.466

* * *

# Test system: NCI-H1944
# Experimental protocol: relative viability (nuclei count vs DMSO), 5 days (fraction); higher = more cells survive
# Conditions used: first compound 0.02 µM
Let's look at some compounds and their measured relative viability.

Compound: CC(=O)O[C@@]12CO[C@@H]1C[C@H](O)[C@@]1(C)C(=O)[C@H](O)C3=C(C)[C@@H](OC(=O)[C@H](O)[C@@H](NC(=O)OC(C)(C)C)c4ccccc4)C[C@@](O)([C@@H](OC(=O)c4ccccc4)[C@H]21)C3(C)C [Docetaxel] + C[C@]1(O)C[C@@H](c2nc(-c3ccc4ccc(-c5ccccc5)nc4c3)c3c(N)nccn32)C1 [Linsitinib] (partner 1 µM)
Assay metric: relative viability
Readout value: 0.208
//
Compound: CC(=O)O[C@@]12CO[C@@H]1C[C@H](O)[C@@]1(C)C(=O)[C@H](O)C3=C(C)[C@@H](OC(=O)[C@H](O)[C@@H](NC(=O)OC(C)(C)C)c4ccccc4)C[C@@](O)([C@@H](OC(=O)c4ccccc4)[C@H]21)C3(C)C [Docetaxel] + CS(=O)(=O)CCNCc1ccc(-c2ccc3ncnc(Nc4ccc(OCc5cccc(F)c5)c(Cl)c4)c3c2)o1 [Lapatinib] (partner 2 µM)
Assay metric: relative viability
Readout value: 0.112
//
Compound: CC(=O)O[C@@]12CO[C@@H]1C[C@H](O)[C@@]1(C)C(=O)[C@H](O)C3=C(C)[C@@H](OC(=O)[C@H](O)[C@@H](NC(=O)OC(C)(C)C)c4ccccc4)C[C@@](O)([C@@H](OC(=O)c4ccccc4)[C@H]21)C3(C)C [Docetaxel] + COc1cc2c(Oc3ccc(NC(=O)C4(C(=O)Nc5ccc(F)cc5)CC4)cc3F)ccnc2cc1OCCCN1CCOCC1 [Foretinib] (partner 0.25 µM)
Assay metric: relative viability
Readout value: 0.151

Next, consider the following compound.
**Query** Tell me the measured relative viability of CC(=O)O[C@@]12CO[C@@H]1C[C@H](O)[C@@]1(C)C(=O)[C@H](O)C3=C(C)[C@@H](OC(=O)[C@H](O)[C@@H](NC(=O)OC(C)(C)C)c4ccccc4)C[C@@](O)([C@@H](OC(=O)c4ccccc4)[C@H]21)C3(C)C [Docetaxel] + O=C(CCCCCCC(=O)Nc1ccccc1)NO [Vorinostat] (partner 1 µM) , please.
**Result** 0.172

* * *

# Test system: NCI-H358
# Experimental protocol: relative viability (nuclei count vs DMSO), 5 days (fraction); higher = more cells survive
# Conditions used: first compound 5 µM
Consider the cut-off 0.4. If the recorded relative viability is strictly smaller, the label is condition met; if not, the label is condition not met.

Compound: O=C(O)CCCCC(CCSCc1ccccc1)SCc1ccccc1 (stereo unspecified) [CPI-613] + O=C(CCCCCCC(=O)Nc1ccccc1)NO [Vorinostat] (partner 1 µM)
Class name: condition not met

Compound: O=C(O)CCCCC(CCSCc1ccccc1)SCc1ccccc1 (stereo unspecified) [CPI-613] + CS(=O)(=O)CCNCc1ccc(-c2ccc3ncnc(Nc4ccc(OCc5cccc(F)c5)c(Cl)c4)c3c2)o1 [Lapatinib] (partner 2 µM)
Class name: condition not met

Compound: O=C(O)CCCCC(CCSCc1ccccc1)SCc1ccccc1 (stereo unspecified) [CPI-613] + CS(=O)(=O)N1CCN(Cc2cc3nc(-c4cccc5[nH]ncc45)nc(N4CCOCC4)c3s2)CC1 [Pictilisib] (partner 1 µM)
Class name: condition met

Compound: O=C(O)CCCCC(CCSCc1ccccc1)SCc1ccccc1 (stereo unspecified) [CPI-613] + Nc1ncn([C@H]2C[C@H](O)[C@@H](CO)O2)c(=O)n1 [Decitabine] (partner 2 µM)
Class name: condition met

Compound: O=C(O)CCCCC(CCSCc1ccccc1)SCc1ccccc1 (stereo unspecified) [CPI-613] + C[C@@H](Oc1cc(-c2cnn(C3CCNCC3)c2)cnc1N)c1c(Cl)ccc(F)c1Cl [Crizotinib] (partner 1 µM)
Class name: condition not met

Switching to the query record.
**Query** Field: below-cutoff. Rule: recorded relative viability strictly less than 0.4. Subject: O=C(O)CCCCC(CCSCc1ccccc1)SCc1ccccc1 (stereo unspecified) [CPI-613] + C[C@]1(O)C[C@@H](c2nc(-c3ccc4ccc(-c5ccccc5)nc4c3)c3c(N)nccn32)C1 [Linsitinib] (partner 1 µM)
**Result** condition not met

* * *

Let's look at some molecules and their measured relative viability.
# Tested on: NCI-H460
# Experimental protocol: relative viability (nuclei count vs DMSO), 5 days (fraction); higher = more cells survive
# Conditions used: first compound 0.253 µM
Quick one: just the number, no unit, thanks!

Molecule: O=c1[nH]c2ccccc2n1C1CCN(CCCC(c2ccc(F)cc2)c2ccc(F)cc2)CC1 [Pimozide] + Nc1nc2[nH]cc(CCc3ccc(C(=O)N[C@@H](CCC(=O)O)C(=O)O)cc3)c2c(=O)[nH]1 [Pemetrexed] (partner 0.2 µM)
Readout value: 0.0643
//
Molecule: O=c1[nH]c2ccccc2n1C1CCN(CCCC(c2ccc(F)cc2)c2ccc(F)cc2)CC1 [Pimozide] + Cc1nc(NC(=O)N2CCC[C@H]2C(N)=O)sc1-c1ccnc(C(C)(C)C(F)(F)F)c1 [Alpelisib] (partner 2 µM)
Readout value: 0.428
//
Molecule: O=c1[nH]c2ccccc2n1C1CCN(CCCC(c2ccc(F)cc2)c2ccc(F)cc2)CC1 [Pimozide] + COc1cc2c(Oc3ccc(NC(=O)C4(C(=O)Nc5ccc(F)cc5)CC4)cc3F)ccnc2cc1OCCCN1CCOCC1 [Foretinib] (partner 0.25 µM)
Readout value: 1.03
//
Molecule: O=c1[nH]c2ccccc2n1C1CCN(CCCC(c2ccc(F)cc2)c2ccc(F)cc2)CC1 [Pimozide] + CC1(C)CCC(c2ccc(Cl)cc2)=C(CN2CCN(c3ccc(C(=O)NS(=O)(=O)c4ccc(N[C@H](CCN5CCOCC5)CSc5ccccc5)c(S(=O)(=O)C(F)(F)F)c4)cc3)CC2)C1 [Navitoclax] (partner 0.5 µM)
Readout value: 1.12
//
Molecule: Cc1cnc(-c2cnc(NCCNc3ccc(C#N)cn3)nc2-c2ccc(Cl)cc2Cl)[nH]1 + N=C(N)NC(=N)NCCc1ccccc1 [Phenformin] (partner 250 µM)
Readout value: 0.452

**Query** Tell me the measured relative viability of Cc1cnc(-c2cnc(NCCNc3ccc(C#N)cn3)nc2-c2ccc(Cl)cc2Cl)[nH]1 + Cc1nc(NC(=O)N2CCC[C@H]2C(N)=O)sc1-c1ccnc(C(C)(C)C(F)(F)F)c1 [Alpelisib] (partner 2 µM) , please.
**Result** 0.475

**Query** Tell me the measured relative viability of O=c1[nH]c2ccccc2n1C1CCN(CCCC(c2ccc(F)cc2)c2ccc(F)cc2)CC1 [Pimozide] + Cc1nc(Nc2ncc(C(=O)Nc3c(C)cccc3Cl)s2)cc(N2CCN(CCO)CC2)n1 [Dasatinib] (partner 0.075 µM) , please.
**Result** 0.486

**Query** Tell me the measured relative viability of O=c1[nH]c2ccccc2n1C1CCN(CCCC(c2ccc(F)cc2)c2ccc(F)cc2)CC1 [Pimozide] + O=C(c1cc(Cc2n[nH]c(=O)c3ccccc23)ccc1F)N1CCN(C(=O)C2CC2)CC1 [Olaparib] (partner 8 µM) , please.
**Result** 0.48

**Query** Tell me the measured relative viability of Cc1cnc(-c2cnc(NCCNc3ccc(C#N)cn3)nc2-c2ccc(Cl)cc2Cl)[nH]1 + Nc1nc2[nH]cc(CCc3ccc(C(=O)N[C@@H](CCC(=O)O)C(=O)O)cc3)c2c(=O)[nH]1 [Pemetrexed] (partner 0.2 µM) , please.
**Result** 0.0754
